Values compiled from patent US11739098B2.

Target: human TLR7 (Homo sapiens, UniProt Q9NYK1)
Construct: host or cells: HEK-Blue cells (HEK293-derived reporter line)
Sequence (Q9NYK1 27-1049): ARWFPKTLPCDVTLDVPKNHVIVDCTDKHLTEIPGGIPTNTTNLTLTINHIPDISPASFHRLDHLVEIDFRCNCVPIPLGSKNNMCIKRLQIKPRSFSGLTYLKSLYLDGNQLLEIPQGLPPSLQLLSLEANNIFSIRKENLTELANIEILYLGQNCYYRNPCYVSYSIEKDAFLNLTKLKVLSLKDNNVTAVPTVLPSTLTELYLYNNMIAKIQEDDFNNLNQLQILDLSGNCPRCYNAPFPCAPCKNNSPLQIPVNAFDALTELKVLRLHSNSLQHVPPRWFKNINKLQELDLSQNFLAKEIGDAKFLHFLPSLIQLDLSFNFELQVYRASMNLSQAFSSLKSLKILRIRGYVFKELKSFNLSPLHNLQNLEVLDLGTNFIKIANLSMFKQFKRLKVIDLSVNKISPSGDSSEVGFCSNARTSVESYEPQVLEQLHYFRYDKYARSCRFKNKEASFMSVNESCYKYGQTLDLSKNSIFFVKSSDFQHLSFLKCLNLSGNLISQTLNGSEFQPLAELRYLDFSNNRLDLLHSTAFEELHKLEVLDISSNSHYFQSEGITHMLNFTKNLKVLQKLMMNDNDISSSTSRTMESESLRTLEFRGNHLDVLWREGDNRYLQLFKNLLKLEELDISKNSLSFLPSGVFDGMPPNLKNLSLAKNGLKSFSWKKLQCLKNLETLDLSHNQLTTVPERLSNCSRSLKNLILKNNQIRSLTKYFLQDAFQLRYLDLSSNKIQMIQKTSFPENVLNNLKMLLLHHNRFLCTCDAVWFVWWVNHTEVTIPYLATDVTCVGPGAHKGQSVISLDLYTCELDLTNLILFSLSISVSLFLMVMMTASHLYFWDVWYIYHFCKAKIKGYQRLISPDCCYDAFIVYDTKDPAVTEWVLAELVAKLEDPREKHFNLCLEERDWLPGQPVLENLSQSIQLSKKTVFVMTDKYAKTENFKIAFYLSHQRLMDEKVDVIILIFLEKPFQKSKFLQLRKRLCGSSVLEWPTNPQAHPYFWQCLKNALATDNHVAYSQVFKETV
Experiment: TLR7 inhibition reporter assay (HEK-Blue cells, SEAP reporter, gardiquimod stimulation)
Assay type: cell-based
Settings: HEK-Blue cells overexpressing human TLR7, SEAP reporter, gardiquimod 7.5 μM
pIC50: −log10 of the molar value.
MEASURED PARAMETER: pIC50

{"COMPOUND STRUCTURE": "CNC(=O)CN1CCC(c2ccc3[nH]c(-c4cnc5c(cnn5C)c4)c(C(C)C)c3c2)CC1", "pIC50": "> 7.00"}

Q: Recall the recorded pIC50 for CC(C)c1c(-c2cnc3c(cnn3C)c2)[nH]c2ccc(C3CCNCC3)cc12 with human TLR7 (Homo sapiens, UniProt Q9NYK1) and state it.
A: > 7.00

Q: Tell me reported pIC50 for COc1cc(-c2[nH]c3ccc(C4CCN(C5CCOCC5)CC4)cc3c2C(C)C)nn2ncnc12 , tested with human TLR7 (Homo sapiens, UniProt Q9NYK1).
A: > 7.00

====

The entries below come with measured IC50 values attached.
Target: human TLR7 (Homo sapiens, UniProt Q9NYK1)
Sequence (Q9NYK1 27-1049): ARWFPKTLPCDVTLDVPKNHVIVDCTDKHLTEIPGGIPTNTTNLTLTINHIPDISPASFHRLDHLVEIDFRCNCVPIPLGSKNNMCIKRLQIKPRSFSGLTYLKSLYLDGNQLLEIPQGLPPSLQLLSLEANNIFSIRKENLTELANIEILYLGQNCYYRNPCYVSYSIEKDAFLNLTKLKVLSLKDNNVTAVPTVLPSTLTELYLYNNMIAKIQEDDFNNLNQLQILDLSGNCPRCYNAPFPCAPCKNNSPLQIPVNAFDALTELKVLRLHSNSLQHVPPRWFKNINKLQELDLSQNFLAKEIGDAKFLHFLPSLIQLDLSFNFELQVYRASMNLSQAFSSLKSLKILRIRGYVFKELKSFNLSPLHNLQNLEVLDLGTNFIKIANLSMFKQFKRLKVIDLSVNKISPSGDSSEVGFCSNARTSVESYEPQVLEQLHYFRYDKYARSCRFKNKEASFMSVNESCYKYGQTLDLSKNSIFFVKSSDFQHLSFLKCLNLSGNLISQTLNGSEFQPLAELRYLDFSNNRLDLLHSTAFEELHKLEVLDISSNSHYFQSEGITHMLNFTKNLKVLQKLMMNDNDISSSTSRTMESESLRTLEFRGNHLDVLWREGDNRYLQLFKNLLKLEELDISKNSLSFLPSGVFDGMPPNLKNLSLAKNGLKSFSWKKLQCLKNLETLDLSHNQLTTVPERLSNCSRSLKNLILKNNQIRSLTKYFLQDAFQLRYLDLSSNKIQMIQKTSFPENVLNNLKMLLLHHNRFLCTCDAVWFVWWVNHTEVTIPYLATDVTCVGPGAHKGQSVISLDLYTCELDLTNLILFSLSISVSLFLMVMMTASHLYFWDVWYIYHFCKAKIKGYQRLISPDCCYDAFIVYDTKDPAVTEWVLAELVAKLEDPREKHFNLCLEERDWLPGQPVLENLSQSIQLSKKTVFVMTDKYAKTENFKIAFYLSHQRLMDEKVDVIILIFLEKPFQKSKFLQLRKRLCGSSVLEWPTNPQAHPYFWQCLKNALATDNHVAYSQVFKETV
Experiment: TLR7 inhibition reporter assay (HEK-Blue cells, SEAP reporter, gardiquimod stimulation)
Settings: HEK-Blue cells overexpressing human TLR7, SEAP reporter, gardiquimod 7.5 μM

Reference set, count: 3
{"COMPOUND": "CNCC(=O)N1CCC(c2ccc3[nH]c(-c4cc(C)n5cncc5c4)c(C(C)C)c3c2)CC1 [Example 530]", "RESULT": "< 0.1 µM"}
{"COMPOUND": "CC(C)c1c(-c2ccc3[nH]ncc3c2)[nH]c2ccc(C3CCNCC3)cc12 [Example 169]", "RESULT": "0.1 to 1 µM"}
{"COMPOUND": "CN(C)C(=O)CN1CCC(c2ccc3[nH]c(-c4ccn5ccnc5c4)c(CC(F)F)c3c2)CC1 [Example 445]", "RESULT": "< 0.1 µM"}

For the next question, use this compound.
Q: Value lookup for IC50; key = CC(C)c1c(-c2cc(C(F)(F)F)c3nccn3c2)[nH]c2ccc(C3CCN(CC(=O)N(C)C)CC3)cc12 [Example 372]
A: < 0.1 µM
